# System: MDA-MB-231 breast
# Test Name: NCI-60 one-dose screen, 48 h
# Condition: 10 µM unless noted
About 83,000 compounds went through this panel and 20% of them were active in at least one assay; those are over-represented in the sample as a whole. The source made the active and inactive calls. How the source made its calls: active means growth percent below 10; inactive means the rest.
Returns: one label drawn from True for active, False for inactive

>>> category_label("COc1cccc(C(=O)NCCCNc2cc(-c3cn(-c4ccccc4)nc3-c3cccc(OC)c3)ccn2)c1")
"False"

Any idea what this test logged for CS(=O)(=O)c1ccc(Nc2nc(N[C@H]3CCCC[C@H]3N)nc3cc[nH]c(=O)c23)cc1 ?
True

Please let me know the test result on file for O=C(/C=C/c1cccc(O)c1)c1cccc(-n2cc(-c3ccc4ccccc4c3)[nH]c2=O)c1 .
False

Record lookup: outcome of this test for Cc1cc(N2CCCC2)nc(NCc2cc(Nc3ccnc4cc(Cl)ccc34)ccc2F)n1 ?
True

# lookup: test call for NC(=S)N/N=C/Cc1ccccc1
False

Any idea what this test logged for Cc1ccc2nc3ccccc3c(NCc3ccccc3)c2c1 ?
False

# lookup: test call for COc1ccc2occ(C3=C(c4c[nH]c5ccccc45)C(=O)N(O)C3=O)c2c1
False

Dear colleague, could you share the recorded outcome for COc1cc(N=Nc2cc(Cc3ccc(N(C)C)cc3)c(N)cc2N(C)C)c2ncccc2c1 when you have a moment?
True

Hi, do you know how COc1cc(/C=N/Nc2ncc(-c3cc4cc5c(cc4o3)OCO5)s2)cc(OC)c1OC came out in this test?
False

Which outcome was entered for the compound O=C(NCCCNc1cc(-c2cn(-c3ccccc3)nc2-c2cccc(O)c2)ccn1)c1ccc(F)cc1 in this test?
True

###

# maps each entry to its growth
# Tested on: A549/ATCC NSCLC
# Test Name: NCI-60 one-dose screen, 48 h (100 = growth as untreated, 0 = no growth, -100 = all killed)
# Condition: 10 µM unless noted
# Protocol: Growth inhibition of the A549/ATCC human Non-Small Cell Lung tumor cell line is measured as a screen for anti-cancer activity. Cells are grown in 96 well plates and exposed to the test compound for 48 hours. Compounds are tested at a single concentration, which is 10^-5 M for most compounds. The reported endpoint is percent growth (GI% or GIPRCNT), where numbers from 0 - 100% represent growth inhibition, and numbers from -100% - 0 represent cell death. […]
Compounds without any hit were thinned out: in the full panel of roughly 83,000, 20% have a hit. Calls of active or inactive are those of the source. The calls were made as follows: active = growth percent below 10; inactive = the rest.

Some solved cases for reference:
>>> result("COc1cc(/C=C/C(=O)N2CCN(C(=O)c3cc(OC)c(OC)c(OC)c3)CC2)ccc1OCCCN1C(=O)c2cccc3cccc(c23)C1=O")
"85.3% (inactive)"
>>> result("COc1c(CCC[P+](c2ccccc2)(c2ccccc2)c2ccccc2)cc2c(c1OC)OCO2")
"40% (inactive)"

Read the entry N#C/C(=C\c1ccc2c(c1)OCO2)n1nnc2cc(F)c(F)cc21 and write its reported growth.
79% (inactive)

Name the recorded growth of the item Cc1cccc(NC(=O)N/C(N)=N/c2nc(C)c(C)s2)c1 in your answer.
42.6% (inactive)

Using known records, supply growth for Cc1ccc(Nc2nc(N)nc(CSCC(=O)NN)n2)cc1
107% (inactive)

###

# System: NCI-H322M lung
# Test Name: NCI-60 one-dose screen, 48 h (100 = growth as untreated, 0 = no growth, -100 = all killed)
# Condition: 10 µM unless noted
The panel holds about 83,000 compounds, 20% with a hit somewhere; the sample as a whole holds those more often.
Quantity: growth (%)
Give the value in % but do not write % after it.

# example entries with known answers
>>> number("Cc1ccc(C(=O)C2=C(O)C(=O)N(Cc3cccnc3)C2c2ccccc2F)o1 (configuration not stated)")
108
>>> number("O=[N+]([O-])c1ccc(-c2cc(-c3ccc(Nc4nc(Nc5ccc(Cl)cc5)nc(Nc5ccc(Cl)cc5)n4)cc3)no2)cc1")
88.4
>>> number("COc1cc(C2CC(=O)Nc3c2c(C)nn3-c2nc3ccccc3[nH]2)cc2c1OCC(=O)N2 (configuration not stated)")
94
>>> number("Cc1ccc(C(=NN=C(N)N)c2ccc(C)cc2)cc1")
30.5
>>> number("COc1ccc(-c2nc(SC(C)C)nc(NNC(N)=S)c2C#N)cc1")
91.3
>>> number("O=S(=O)(NCCCNc1cc(-c2c(-c3cccc(O)c3)nc3sccn23)ccn1)c1cccc(Cl)c1")
85.5

Could you now look at the following compound, please?
Retrieve growth measured for O=C(/C=C/c1c(Cl)nc2sccn12)c1ccc(F)c(F)c1 and print it.
93.1

###

# System: IGROV1 ovarian
# Test Name: NCI-60 one-dose screen, 48 h
# Condition: 10 µM unless noted
Compounds without any hit were thinned out: in the full panel of roughly 83,000, 20% have a hit. Calls of active or inactive are those of the source. The calls were made as follows: active = growth percent below 10; inactive = the rest.
Hello, when you answer, please use one of the following outcomes: active, inactive

Record excerpt, results attached:
>>> category_label("C=CC(=O)Nc1cccc(Oc2nccc(Nc3nnc(C4CC4)s3)n2)c1")
"inactive"
>>> category_label("CC/C=C\\C[C@H](O)C/C=C1/C(=O)C=C[C@@H]1C/C=C\\CCCCO")
"inactive"
>>> category_label("COc1cccc(-c2nc3sccn3c2-c2ccnc(NCCNS(=O)(=O)c3cccc(F)c3)c2)c1")
"inactive"
>>> category_label("CCCCN(CCCC)CC(C)(C)C(O)c1ccc(OC)c2ccccc12 (configuration not stated)")
"active"

Which outcome was assigned to Cn1c(-c2c(N)n(Cc3ccc(C(F)(F)F)cc3)c3nc(C#N)c(C#N)nc23)nc2ccccc21 in this test?
inactive

Check the results log: what was the call for COc1cccc(-c2nn(-c3ccccc3)cc2-c2ccnc(NCCNC(=O)Nc3ccccc3)c2)c1 ?
inactive

###

# System: DU-145 prostate
# Test Name: NCI-60 one-dose screen, 48 h
# Condition: 10 µM unless noted
The panel holds about 83,000 compounds, 20% with a hit somewhere; the sample as a whole holds those more often. The source made the active and inactive calls. The calls were made as follows: active = growth percent below 10; inactive = the rest.
Result category, one only: yes = active, no = inactive

>>> category_label("CSc1n(Cc2ccc3ccccc3c2)c(C)c[n+]1Cc1ccc2ccccc2c1")
"yes"

Name the outcome recorded for COc1cccc(/C=C/C(=O)c2c(C)nc3ccccc3c2/C=C/c2ccc(C)cc2)c1OC in the assay.
no

Hi, sorry to bother you, what did the test record for CC(=O)OC1CCC2(C)C(=CC3C4CCC(=O)C4(C)CCC32)C1 (configuration not stated) ?
no

Could you please tell me the result logged for Cc1ccc(/C=C/c2c(C(=O)/C=C/c3ccc(C(F)(F)F)cc3)c(C)nc3ccccc23)cc1 in this assay?
yes

Per the records of this test, what outcome belongs to COc1c(CCC[P+](c2ccccc2)(c2ccccc2)c2ccccc2)cc2c(c1OC)OCO2 ?
no

###

# System: HT29 colon
# Test Name: NCI-60 one-dose screen, 48 h
# Condition: 10 µM unless noted
# Description: Growth inhibition of the HT29 human tumor cell line is measured as a screen for anti-cancer activity. Cells are grown in 96 well plates and exposed to the test compound for 48 hours. Compounds are tested at a single concentration, which is 10^-5 M for most compounds. The reported endpoint is percent growth (GI% or GIPRCNT), where numbers from 0 - 100% represent growth inhibition, and numbers from -100% - 0 represent cell death. For example, a value of 40 represents 60% growth inhibition. […]
Compounds without any hit were thinned out: in the full panel of roughly 83,000, 20% have a hit. Calls of active or inactive are those of the source. How the source made its calls: active means growth percent below 10; inactive means the rest.
Pick from active, inactive when you respond.

Some solved cases for reference:
>>> category_label("CN(Cc1cnc2nc(N)nc(N)c2n1)c1ccc(C(=O)N[C@@H](CCc2nn[nH]n2)c2nn[nH]n2)cc1")
"inactive"
>>> category_label("COc1ccc(C2=Nc3c(N)ncnc3NC(c3ccc4c(c3)OCO4)C2)cc1 (centres undefined)")
"inactive"
>>> category_label("CCC(CO)Nc1nc2ccc(Cl)cc2c2ccccc12 (centres undefined)")
"inactive"
>>> category_label("Cn1cc(-c2csc(-c3ccccc3)n2)c2cccnc21")
"active"
>>> category_label("CC(C)Sc1nc(NNC(N)=S)c(C#N)c(-c2ccc(F)cc2)n1")
"inactive"
>>> category_label("N=c1sc(Cc2ccc(Cl)cc2)cn1CC(=O)c1ccc(F)cc1")
"inactive"
>>> category_label("O=C1/C(=C2/C=Nc3ccccc32)N(O)c2ccccc21")
"inactive"
>>> category_label("CC1=C(SCCC(=O)OC(C[Se]C2=C(C)C(=O)c3ccccc3C2=O)C(=O)NCCCCCC(=O)OCc2ccccc2)C(=O)c2ccccc2C1=O (centres undefined)")
"inactive"

I would be grateful if you could indicate the recorded call for Cc1ccc(C(=O)CSc2nc(-c3ccc(Br)cc3)c(C#N)c(=O)[nH]2)cc1 .
inactive

###

# Tested on: MCF7 breast
# Test Name: NCI-60 one-dose screen, 48 h (100 = growth as untreated, 0 = no growth, -100 = all killed)
# Condition: 10 µM unless noted
# Description: Growth inhibition of the MCF7 human tumor cell line is measured as a screen for anti-cancer activity. Cells are grown in 96 well plates and exposed to the test compound for 48 hours. Compounds are tested at a single concentration, which is 10^-5 M for most compounds. The reported endpoint is percent growth (GI% or GIPRCNT), where numbers from 0 - 100% represent growth inhibition, and numbers from -100% - 0 represent cell death. For example, a value of 40 represents 60% growth inhibition. […]
This is part of a sample that, as a whole, favours compounds with a hit. Of some 83,000 tested, about 20% had one in any assay.
growth of 70% or higher: MET. Under 70%: NOT MET.

See these solved cases before continuing.
>>> category_label("CCN1C(=O)N(CC)C2Nn3c(s/c(=C\\c4ccc(Cl)cc4Cl)c3=O)=NC21 (configuration not stated)")
"NOT MET"
>>> category_label("COc1ccc(-c2nc(SCCC(C)C)nc(N/N=C\\c3cccc(Cl)c3)c2C#N)cc1")
"MET"
>>> category_label("Cc1cc(O)c(C2=NN(c3ccc(S(N)(=O)=O)cc3)C(c3ccccc3Cl)C2)cc1Cl (configuration not stated)")
"NOT MET"
>>> category_label("N[C@@H](CCCCNCC(=O)O)C(=O)O")
"MET"
>>> category_label("CCN(CC)c1ccc2nc3c4ccccc4c(=NC(=O)c4ccccc4-c4c5ccc(N(CC)CC)cc5[o+]c5cc(N(CC)CC)ccc45)cc-3oc2c1")
"NOT MET"
>>> category_label("O=C1CCC2=C3C4CCCCC4C(=O)C4CCCC(OC2C1)C34 (configuration not stated)")
"NOT MET"

Moving on to the next compound.
I'd appreciate it if you could say whether COc1ccc2occ(C3=C(c4c[nH]c5ccccc45)C(=O)N(O)C3=O)c2c1 has growth at least equal to 70%.
MET
